Each entry below carries its reported EC50.
TARGET_SYSTEM: Munc13-1 C1 (WT) (Rattus norvegicus, UniProt Q62768, E582L)
METHOD: intrinsic fluorescence quenching, logistic fit
Give the quantity in mM, number only.

> print(dat)
   compound.string  reported.value
1        CCCCCCCCO             3.3

As a next step, examine the compound that follows.
Ask: Given "CCCCO" , respond with its EC50.
Result: 70.5
